TEST_DESCRIPTION: Investigation on solvent for crystallization: whether Compound A is dissolved in a solvent
Format: physicochemical
CONDITION_SET: organic solvent or mixture, thermodynamic from solid; solvent 2-propanol; 3 ml solvent to 50 mg; read-out: Solubility (*1)
RECORDED_METRIC: solubility

Q) Answer with the recorded solubility for the compound listed here: Cc1oc(=O)oc1CN1CCN(c2cc3c(cc2F)c(=O)c(C(=O)O)c2n3C(C)S2)CC1 (stereo not shown)
A) ≤ 16.7 mg/mL

---

TEST_DESCRIPTION: Investigation on solvent for crystallization: whether Compound A is dissolved in a solvent
Assay type: physicochemical
CONDITION_SET: organic solvent or mixture, thermodynamic from solid; solvent methylcyclohexane; 3 ml solvent to 50 mg; read-out: Solubility (*1)
RECORDED_METRIC: solubility

Q) Answer with the recorded solubility for the compound listed here: Cc1oc(=O)oc1CN1CCN(c2cc3c(cc2F)c(=O)c(C(=O)O)c2n3C(C)S2)CC1 (stereo not shown)
A) ≤ 16.7 mg/mL
